# assay-text: compound binding in COS7 lysate, probe aLAP1, primary screen, cell lysate, small-molecule microarray (AID 1124);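 further: lysate comes from COS7 cells expressing LAP1 and is applied at 0.3 µg/mL; score merges spot fluorescence near 667 nm with signal-to-noise over triplicate slides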
# condition-notes: probe aLAP1, fluorescence, higher = more signal
Please note: t applies when composite z-score is 0.4 or greater, and f applies otherwise.

molecule	assigned-category
C#CCNC(=O)[C@H](Cc1ccccc1)NC(=O)[C@@H](N=[N+]=[N-])C(C)C	f
CCN(CC)c1ccc(N2CC=CC34O[C@@H]5/C=C\CCC(C)OC(=O)C5[C@H]3C(=O)N(CCO)[C@@H]4C2=O)cc1 (stereo partly specified)	t
Cc1ccc(S[C@]2(C(=O)NCCN3CCOCC3)CC(=O)N(Cc3ccccc3C(F)(F)F)[C@@H]2c2ccc(CO)cc2I)cc1	f
COc1ccc(C#Cc2ccc3c(c2)[C@]2(C(=O)N3)[C@H](C(=O)N3CCc4cc(OC)c(OC)cc4C3)[C@H]3C(=O)O[C@H](c4ccccc4)[C@H](c4ccccc4)N3[C@@H]2c2ccc(O)cc2)cc1	f
O=C1O[C@@H](c2ccccc2)[C@@H](c2ccccc2)N2[C@@H](c3ccccc3OCCO)[C@]3(C(=O)Nc4ccccc43)[C@@H](C(=O)NC[C@H](O)c3ccccc3)[C@H]12	t

###

# assay-text: basal 3T3-L1 adipocyte mitochondrial potential changes, profiling panel, cell-based, JC-1 fluorescence, 3T3-L1 adipocytes, 24 h, 100 nL compound (AID 1168); further: test concentration not given here
# condition-notes: JC-1 mitochondrial fluorescence, higher = more signal, called active from +8 up or from −8 down
quantity-name: z-score

molecule	experimental-result
COCCOC(=O)N1C(=O)[C@@]2(c3ccccc31)[C@H](C(=O)N1CCN(c3ncccn3)CC1)[C@H]1C(=O)O[C@H](c3ccccc3)[C@H](c3ccccc3)N1[C@@H]2c1ccc(OCCO)cc1	0.865
Cc1c(NC(=O)/C(C#N)=C/C=C/c2ccccc2[N+](=O)[O-])c(=O)n(-c2ccccc2)n1C	-0.0694
COc1ccc([Si](C)(C)[C@H]2[C@H](CC(=O)N3Cc4ccccc4C[C@H]3CO)O[C@@]3(C(=O)N(Cc4cccc(N5CCCCC5=O)c4)c4ccccc43)[C@@H]2C)cc1	-0.198
CC(C)CCC[C@@H](C)[C@H]1CC[C@@]2(C)C3=C(CC[C@]12C)[C@@]1(C)CC[C@H](OC(=O)c2ccc(Br)cc2)C(C)(C)C1CC3 (stereo partly specified)	0.599
CC[C@H]1C2=C3C(CC[C@H]4C(OCc5ccc(F)cc5C(F)(F)F)OC[C@](C)([C@@H]34)N(C(=O)OC(C)(C)C)C2)C2COC(=O)OCC21 (stereo partly specified)	-1.41
C=CC[C@]12N=C(c3ccc(OCCCO)cc3)O[C@H]1c1ccccc1N(C)C2=O	-0.427
Cc1ccc(S[C@]2(C(=O)NC(C)C)CC(=O)N(Cc3ccccc3C(F)(F)F)[C@@H]2c2ccc(CO)cc2I)cc1	-0.123
O=C(O)[C@H](Cc1ccccc1)n1cc(-c2ccccn2)nn1	1.56
C[C@H]1C2=C3C(CC[C@H]4C(OCc5ccc(F)cc5C(F)(F)F)OC[C@](C)([C@@H]34)N(C(=O)OC(C)(C)C)C2)C2COC(=O)OCC21 (stereo partly specified)	-1.06
CC1CC/C=C\[C@H]2OC34C=CCN(CCN5CCOCC5)C(=O)[C@H]3N(CCO)C(=O)[C@@H]4C2C(=O)O1 (stereo partly specified)	-0.533
COC1(C)CN(Cc2ccccc2Br)[C@H](/C=C/c2ccccc2)[C@H](Cc2ccccc2)O1 (stereo partly specified)	-0.35
O=C1c2ccccc2[C@](Cc2ccccc2I)(C(=O)NCCN2CCOCC2)[C@H](c2ccc(CO)cc2)N1Cc1ccccc1	0.421
O=C1NCC(=O)N2[C@@H]1C[C@@H](C(=O)O)[C@H]2c1ccc(O)cc1	-0.799
CC(=O)n1cc(C(O)C2C=CC3C(=O)N(Cc4ccccc4)C(=O)C3N2n2cnnc2)c2ccccc21 (stereo unspecified)	-0.623
CC(C)NC(=O)[C@@]1(C)c2ccccc2C(=O)N(C(C)C)[C@H]1c1ccc(CO)cc1	-0.527
C=CCN1Cc2ccccc2C[C@@]2(N=C(c3ccc(OCCCO)cc3)O[C@H]2c2ccccc2)C1=O	1.4

###

# test-system: NADPH oxidase 2 (Homo sapiens) (UniProt P04839)
# Sequence (P04839 whole entry, looked up): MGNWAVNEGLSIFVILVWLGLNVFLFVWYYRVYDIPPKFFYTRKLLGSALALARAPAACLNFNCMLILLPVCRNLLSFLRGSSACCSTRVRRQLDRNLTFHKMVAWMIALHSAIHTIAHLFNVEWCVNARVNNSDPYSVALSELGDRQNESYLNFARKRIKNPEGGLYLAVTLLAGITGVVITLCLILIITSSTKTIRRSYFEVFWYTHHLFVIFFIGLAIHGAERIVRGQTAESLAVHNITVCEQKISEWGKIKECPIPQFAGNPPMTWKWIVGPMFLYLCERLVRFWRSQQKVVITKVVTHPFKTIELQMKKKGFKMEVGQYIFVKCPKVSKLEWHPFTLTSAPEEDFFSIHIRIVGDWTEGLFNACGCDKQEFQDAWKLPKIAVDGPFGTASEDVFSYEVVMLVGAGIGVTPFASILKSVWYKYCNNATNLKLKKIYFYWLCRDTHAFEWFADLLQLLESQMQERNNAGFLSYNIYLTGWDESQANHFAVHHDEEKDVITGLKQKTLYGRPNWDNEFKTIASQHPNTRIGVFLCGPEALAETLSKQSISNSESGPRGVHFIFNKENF
# assay-text: NOX2-dependent H2O2 signal modulators, primary screen, NOX inhibitor project, cell-based, HEK293-NOX2, PMA-stimulated, Amplex Red fluorescence (AID 1159); further: test concentration not given here
# condition-notes: 45 min, higher = more signal, called active from +8 up or from −8 down
The source made the active and inactive calls.
Recorded z-score for the following compounds

compound	test-system	z-score
CON(C)C(=O)C=C1C[C@@H](c2cccc(Cl)c2)O[C@@H](c2cccc(Cl)c2)O1	NADPH oxidase 2 (Homo sapiens) (UniProt P04839)	-0.0563 (inactive)
CCCCN1CC=CC23O[C@@H]4/C=C\CCC(C)OC(=O)C4[C@H]2C(=O)N(CCCCCCO)[C@@H]3C1=O (stereo not given in full)	NADPH oxidase 2 (Homo sapiens) (UniProt P04839)	1.2 (inactive)
COc1ccc([Si](C)(C)[C@H]2[C@H](CC(=O)N3Cc4ccccc4C[C@H]3CO)O[C@@]3(C(=O)N(Cc4cccc(N5CCCCC5=O)c4)c4ccccc43)[C@@H]2C)cc1	NADPH oxidase 2 (Homo sapiens) (UniProt P04839)	-0.508 (inactive)
C=CC[C@@]1(C(=O)N2CCCCC2)N=C(c2ccc(OCCCO)cc2)O[C@@H]1c1ccccc1	NADPH oxidase 2 (Homo sapiens) (UniProt P04839)	-0.432 (inactive)
NC(=O)NCC#Cc1ccc2c(c1)[C@]1(C(=O)N2)[C@H](C(=O)Nc2nc3ccccc3s2)[C@H]2C(=O)O[C@H](c3ccccc3)[C@H](c3ccccc3)N2[C@@H]1c1ccc(O)cc1	NADPH oxidase 2 (Homo sapiens) (UniProt P04839)	-0.23 (inactive)
O=C(O)[C@]1(Cc2ccccc2)N=C(c2ccc(OCCCO)cc2)O[C@@H]1c1ccccc1	NADPH oxidase 2 (Homo sapiens) (UniProt P04839)	0.26 (inactive)
CC=CC(O)C1C=CC2C(=O)N(c3ccccc3)C(=O)C2N1Nc1ccc([N+](=O)[O-])cc1 (stereo not given)	NADPH oxidase 2 (Homo sapiens) (UniProt P04839)	-0.095 (inactive)
COC(=O)[C@@]1(Cc2ccccc2)[C@H]2c3cc(C(=O)N4CCCC4)[nH]c3C[C@H]2CN1C(=O)c1ccccc1	NADPH oxidase 2 (Homo sapiens) (UniProt P04839)	0.0123 (inactive)
CCOC(=O)C[C@H]1[C@H](OC(=O)c2ccc(-c3ccccc3)cc2)[C@@H](NC(=O)c2ccc3ccccc3c2)c2cc(OCCCO)ccc2N1C(=O)c1ccc2ccccc2n1	NADPH oxidase 2 (Homo sapiens) (UniProt P04839)	-1.35 (inactive)
CC(C)C(=C=CC[C@H](O)c1ccc(OCCO)cc1)C[C@H](O)c1cc(Cl)cc(Cl)c1O	NADPH oxidase 2 (Homo sapiens) (UniProt P04839)	0.532 (inactive)
COc1ccc([Si](C)(C)[C@H]2[C@H](CCn3cc([C@H](O)c4ccccc4)nn3)O[C@@]3(C(=O)N(Cc4cccc(N5C(=O)c6cccc7cccc5c67)c4)c4ccccc43)[C@@H]2C)cc1	NADPH oxidase 2 (Homo sapiens) (UniProt P04839)	0.918 (inactive)
COc1cc(CO)cc(I)c1O[C@H]1C=C(C(=O)NCCO)C[C@@H](N(Cc2ccc(F)cc2)C(=O)C2CCCO2)[C@@H]1O (stereo not given in full)	NADPH oxidase 2 (Homo sapiens) (UniProt P04839)	0.0499 (inactive)
NC(N)=NCc1cn(CCc2c[nH]c3ccccc23)nn1	NADPH oxidase 2 (Homo sapiens) (UniProt P04839)	-0.00385 (inactive)
C[N+](C)(C)CCCC[C@@H]1NC(=O)[C@@H]2C[C@H](C(=O)O)[C@H](c3ccc(O)cc3)N2C1=O	NADPH oxidase 2 (Homo sapiens) (UniProt P04839)	-0.0831 (inactive)
O=c1cccc(-c2cccc(Cl)c2)o1	NADPH oxidase 2 (Homo sapiens) (UniProt P04839)	-0.16 (inactive)

###

# assay-text: small-molecule binders of probe aInhba, primary screen, biochemical, small-molecule microarray, 635/667 nm fluorescence (AID 1148);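 further: score merges 667nm spot fluorescence with signal-to-noise for antibody binding to printed compounds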
# condition-notes: higher = more signal
Please note: met applies when composite z-score is -0.06 or greater, and not met applies otherwise.

compound	assigned-category
C=C1C2CC3C(=C4C(CO[C@@H]4[C@H]4CCCN4S(=O)(=O)c4ccccc4[N+](=O)[O-])C4C(=O)N(C)C(=O)C34)CC2C(=O)N1C (stereo partly drawn)	not met
O=C1NC(=O)C2C1C=CC(C(O)c1ccc(Br)cc1)N2Nc1ccccn1 (stereo not drawn)	met
COCCCNC(=O)[C@]1(CCC(=O)OC(C)(C)C)N=C(c2ccc(OCCCO)cc2)O[C@@H]1c1ccccc1	met
COCCOC(=O)N1C(=O)[C@@]2(c3cc(C#CC4(O)CCCCCC4)ccc31)[C@H](C(=O)N1CCCCCCC1)[C@H]1C(=O)O[C@H](c3ccccc3)[C@H](c3ccccc3)N1[C@@H]2c1ccc(OCCO)cc1	met
CCOC(=O)[C@H]1C/C=C/C[C@H](C(=O)OCC)C(=O)O[C@H]2[C@@H](OC)O[C@H](CO)[C@@H](OC(=O)Nc3ccc(OC)cc3)[C@@H]2OC1=O	met
C#CCNC(=O)[C@H](Cc1ccccc1)NC(=O)[C@@H](N=[N+]=[N-])C(C)C	met
NC(=O)N1C(=O)C2C(C1=O)C1C=C(CCCO)C2C(c2cccs2)N1Cc1cc2c(cc1Br)OCO2 (stereo not drawn)	not met
COc1cc2c(cc1OC)CN(C(=O)[C@@H]1[C@H]3C(=O)O[C@H](c4ccccc4)[C@H](c4ccccc4)N3[C@H](c3ccccc3OCCO)[C@@]13C(=O)Nc1ccc(C#CC4(O)CCCCCC4)cc13)CC2	met
CC(C)(C)OC(=O)CC[C@]1(C(=O)N2CCOCC2)N=C(c2ccc(OCCCO)cc2)O[C@H]1c1ccccc1	not met
COCCCNC(=O)[C@@]1(Sc2ccc(C)cc2)CC(=O)N(Cc2cc(C(F)(F)F)cc(C(F)(F)F)c2)[C@@H]1c1ccc(CO)cc1	met
C=CCOC(=O)[C@H]1[C@@H]2C(=O)O[C@@H](c3ccccc3)[C@@H](c3ccccc3)N2[C@@H](c2ccc(OCCOC(=O)[C@H]3C[C@H]4C(=O)N[C@@H](Cc5ccccc5)C(=O)N4[C@H]3c3ccc(O)cc3)cc2)[C@]12C(=O)Nc1ccc(I)cc12	met
COC(=O)[C@@]1(Cc2ccc(OC)cc2)[C@H]2c3cc(C(=O)N(C)C)n(Cc4nc5ccccc5[nH]4)c3C[C@H]2CN1C(=O)c1ccccc1	met
COCCOC(=O)N1C(=O)[C@@]2(c3cc(C#CC4=CCCCC4)ccc31)[C@H](c1ccccc1OCCO)N1[C@H](c3ccccc3)[C@H](c3ccccc3)OC(=O)[C@H]1[C@@H]2C(=O)N1CCc2cc(OC)c(OC)cc2C1	not met
